Measured pKd values are reported for all entries that follow.
target: CD3; assay: Octet, crude lysate
Sequence (P07766 23-126): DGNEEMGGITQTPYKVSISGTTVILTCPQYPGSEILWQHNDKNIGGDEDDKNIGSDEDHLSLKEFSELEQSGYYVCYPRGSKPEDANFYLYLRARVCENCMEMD
pKd: −log10 of the molar value.
Recorded endpoint: pKd

>>> numeric_value("AC3403 (bispecific antibody, V domains shown) VH: EVQLLESGGGIVQPGGSLKLSCAASGFTFNTYAMNWVRQAPGKGLEWVARIRSKTNNYATYYADSVKDRFTISRDDSKNTVYLQMNNLKTEDTAVYYCVRHENFGNSYVSWFAHWGQGTLVTVSS VL: ELVVTQEPSLTVSPGGTVTLTCRSSNGAVTSSNYANWVQQKPGQAPRGLIGGTNKRAPGTPARFSGSLLGGKAALTLSGVQPEDEAVYYCALWYPNLWVFGGGTKLTVL")
7.95
>>> numeric_value("AC3369 (bispecific antibody, V domains shown) VH: EVQLLESGGGIVQPGGSLKLSCAASGFTFNTYAMNWVRQAPGKGLEWAARIRSKYNNYATYYADSVKDRFTISRDDSKNTVYLQMNNLKTEDTAVYYCVRHENFGNSYVSWFAHWGQGTLVTVSS VL: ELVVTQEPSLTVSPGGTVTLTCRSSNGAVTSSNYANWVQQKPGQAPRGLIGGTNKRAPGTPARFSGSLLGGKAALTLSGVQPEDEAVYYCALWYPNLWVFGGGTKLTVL")
8.08
>>> numeric_value("AC3436 (bispecific antibody, V domains shown) VH: EVQLLESGGGIVQPGGSLKLSCAASGFTFNTYAMNWVRQAPGKGLEWVARIRSKYNNYATYYADSVKDRFTISRDDSKNTVYLQMNNLKTEDTAVYYCVRHENFGNSYVSWFAHWGQGTLVTVSS VL: ELVVTQEPSLTVSPGGTVTLTCRSSNGAVTSSNYANWVQQKPGQAPRGLIGGTNKRAPGTPARFSGSSLGGKAALTLSGVQPEDEAVYYCALWYPNLWVFGGGTKLTVL")
8.14
>>> numeric_value("AC3427 (bispecific antibody, V domains shown) VH: EVQLLESGGGIVQPGGSLKLSCAASGFTFNTYAMNWVRQAPGKGLEWVARIRSKYNNYATYYADSVKDRFTISRDDSKNTVSLQMNNLKTEDTAVYYCVRHENFGNSYVSWFAHWGQGTLVTVSS VL: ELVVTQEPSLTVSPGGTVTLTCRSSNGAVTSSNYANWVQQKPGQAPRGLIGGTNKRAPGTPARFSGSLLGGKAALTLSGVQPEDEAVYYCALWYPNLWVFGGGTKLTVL")
8.02
>>> numeric_value("AC3431 (bispecific antibody, V domains shown) VH: EVQLLESGGGIVQPGGSLKLSCAASGFTFNTYAMNWVRQAPGKGLEWVARIRSKYNNYATYYADSVKDRFTISRDDSKNTVYLQMNYLKTEDTAVYYCVRHENFGNSYVSWFAHWGQGTLVTVSS VL: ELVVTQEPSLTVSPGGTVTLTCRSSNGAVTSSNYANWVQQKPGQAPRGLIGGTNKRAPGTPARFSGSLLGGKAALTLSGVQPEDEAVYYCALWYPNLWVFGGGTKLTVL")
8.28
>>> numeric_value("AC3412 (bispecific antibody, V domains shown) VH: EVQLLESGGGIVQPGGSLKLSCAASGFTFNTYAMNWVRQAPGKGLEWVARIRSKYNNYGTYYADSVKDRFTISRDDSKNTVYLQMNNLKTEDTAVYYCVRHENFGNSYVSWFAHWGQGTLVTVSS VL: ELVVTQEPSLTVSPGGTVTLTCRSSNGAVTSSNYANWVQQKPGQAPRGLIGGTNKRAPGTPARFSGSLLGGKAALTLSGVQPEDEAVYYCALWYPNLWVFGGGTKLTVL")
8.09
>>> numeric_value("AC3411 (bispecific antibody, V domains shown) VH: EVQLLESGGGIVQPGGSLKLSCAASGFTFNTYAMNWVRQAPGKGLEWVARIRSKYNNWATYYADSVKDRFTISRDDSKNTVYLQMNNLKTEDTAVYYCVRHENFGNSYVSWFAHWGQGTLVTVSS VL: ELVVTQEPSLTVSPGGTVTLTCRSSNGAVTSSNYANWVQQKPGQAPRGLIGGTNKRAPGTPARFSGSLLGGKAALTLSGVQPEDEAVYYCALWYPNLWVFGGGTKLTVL")
8.11
>>> numeric_value("AC3435 (bispecific antibody, V domains shown) VH: EVQLLESGGGIVQPGGSLKLSCAASGFTFNTYAMNWVRQAPGKGLEWVARIRSKYNNYATYYADSVKDRFTISRDDSKNTVYLQMNNLKTEDTAVYYCVRHENFGNSYVSWFAHWGQGTLVTVSS VL: ELVVTQEPSLTVSPGGTVTLTCRSSNGAVTSSNYANWVQQKPGQAPRGLIGGTNKRAPGTPARFSGSLDGGKAALTLSGVQPEDEAVYYCALWYPNLWVFGGGTKLTVL")
8.21
>>> numeric_value("AC3399 (bispecific antibody, V domains shown) VH: EVQLLESGGGIVQPGGSLKLSCAASGFTFNTYAMNWVRQAPGKGLEWVARIRSKRNNYATYYADSVKDRFTISRDDSKNTVYLQMNNLKTEDTAVYYCVRHENFGNSYVSWFAHWGQGTLVTVSS VL: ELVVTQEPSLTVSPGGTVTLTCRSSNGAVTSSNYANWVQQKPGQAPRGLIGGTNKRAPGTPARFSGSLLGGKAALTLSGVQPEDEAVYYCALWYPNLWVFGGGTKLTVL")
8.42
>>> numeric_value("AC3437 (bispecific antibody, V domains shown) VH: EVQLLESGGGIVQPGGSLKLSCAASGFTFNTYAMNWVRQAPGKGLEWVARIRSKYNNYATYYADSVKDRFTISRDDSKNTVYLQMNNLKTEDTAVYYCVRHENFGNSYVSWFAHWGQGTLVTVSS VL: ELVVTQEPSLTVSPGGTVTLTCRSSNGAVTSSNYANWVQQKPGQAPRGLIGGTNKRAPGTPARFSGSKLGGKAALTLSGVQPEDEAVYYCALWYPNLWVFGGGTKLTVL")
8.49
